Attribute: melting point
quantity-name: melting point

COCOc1cc(F)ccc1-c1cc(-c2cccc(C(=O)O)c2)c(C#N)c(NC(=O)c2ccco2)n1 | 254 °C
COc1cccc(-c2nc(NC(=O)Nc3ccccn3)cs2)c1 | 201 to 203 °C
Cc1c(S(C)(=O)=O)c2ccccc2n1CC1=NCCN1 | 187 to 188 °C
Cc1cc(C)cc(C(O)(CCc2cncn2Cc2ccccc2)c2cc(C)cc(C)c2)c1 | 120 to 124 °C
C[C@@H](CO)Cn1c(C(=O)NCc2cc(C(F)(F)F)cc(C(F)(F)F)c2)c(-c2ccccc2)c2cccnc2c1=O | 101 to 103 °C
CCOC(=O)CN1C(=O)C(NC(=O)Cc2ccc(Cl)cc2)N=C(c2ccccc2)c2ccccc21 (stereo not given) | 205 to 207 °C
COC(=O)C(Oc1cc(OCc2ccsc2)ccc1C#N)c1ccccc1Br (racemic) | 92 to 95 °C
CC(C=O)(CCc1c[nH]c2ccccc12)NC(=O)OC1C2CC3CC(C2)CC1C3 (stereo not given) | 178 to 179 °C
CC1(C)CC(=O)C(C(=O)Nc2ccc(Cl)c(C(F)(F)F)c2)C(=O)O1 (stereo not given) | 156 °C
S=C1N=c2cc(Cl)c(Cl)cc2=N1 | 328 to 330 °C
O=CNc1csc(Br)n1 | 167 °C
COCOc1cccc2cccc(C=O)c12 | 56 to 57 °C
COC(=O)c1c(C)sc2cc(CCl)ccc12 | 78 to 79 °C
COC(=O)c1nc(-c2sccc2[N+](=O)[O-])n(C)c(=O)c1OC(=O)C(C)(C)C | 159 to 161 °C
COc1ccc(-c2c(Cl)c(CCl)nc3sc4c(c23)CCN(Cc2ccccc2)C4)cc1 | 194 to 195 °C
Cc1c(C)c(N2CCN(c3ccc(C(F)(F)F)cc3)CC2)c(C)c2c1OC(C)(C)C2N1CCCCC1 (stereo not given) | 182 to 183 °C
C=CCS(=O)c1ncc(Cl)cn1 (stereo not given) | 82 °C
CC(=O)C(C)(C)C(C=C(Cl)C(F)(F)F)OS(C)(=O)=O (stereo not given) | 50 to 52 °C
CC1(C)CCC(C)(C)c2cc(-c3cc([N+](=O)[O-])ccc3OS(=O)(=O)C(F)(F)F)ccc21 | 87 to 89 °C
COc1ccc(O)c(Cl)c1O | 69 to 70 °C
O=C(O)c1ccc(N2CCCCC2)c(NC(=O)C(CS)Cc2ccccc2)c1 (stereo not given) | 142 to 146 °C
OC(CCN1CCCC1)c1ccc(C2CCCCC2)c(Cl)c1 (stereo not given) | 90 °C
O=C1COCc2cc(-c3ccccc3)ccc21 | 127 to 128 °C
O=c1c2c(Cc3cccc(C(F)(F)F)c3)n[nH]c2c2cccnc2n1-c1ccccc1 | 303 to 305 °C
CCCOc1ccccc1-c1nc2nc(N)nnc2c(=O)[nH]1 | 255 to 256 °C
CNC(=O)[C@@H]1O[C@H]1c1ccc(OC)cc1 | 135 to 136 °C
O=C(O)CCSC1c2ccccc2COc2ccc(OCc3ccc4cc(F)ccc4n3)cc21 (stereo not given) | 167 to 171 °C
CN1CC(C)(C)c2ccc(NC(=O)/C=C/c3ccc(C(C)(C)C)cc3)cc21 | 90 to 101 °C
CC(=O)c1cc([N+](=O)[O-])c(N)c2c1CCCC2 | 170 to 172 °C
NC(=O)C1(CCC(=O)O)c2ccccc2-c2ccccc21 | 191 to 192 °C

Source: a melting point compilation (Tetko et al.; mined from patent text by program, amines drawn as free bases though some values may be those of a salt)
